# Tested on: BT-549 breast
# Assay notes: NCI tumour cell line growth inhibition, 48 h
Readout: TGI (µM)
Give bare numbers, in µM.

CCC1=CC2Cc3nc4cc(Cl)ccc4c(N)c3C(C1)C2 (stereo not given) :: 35.4
COc1cc2c(cc1OCCCCCCN1CCN(c3ncnc4ccccc34)CC1)N=CC1CCCN1C2=O (stereo not given) :: 0.227
O=C(CC12CC3CC(CC(C3)C1)C2)NCCOCCOCCOCCNC(=O)c1cc2c(o1)C(=O)c1ccccc1C2=O :: 2.68

What measured TGI goes with `O=c1[nH]ccc2nc(N3CCC(O)CC3)nc(Nc3cccc(C(F)(F)F)c3)c12` ?
4.34
